Let's look at some molecules and their measured pIC50.
Target: UniProt P30305
Sequence (P30305 whole entry): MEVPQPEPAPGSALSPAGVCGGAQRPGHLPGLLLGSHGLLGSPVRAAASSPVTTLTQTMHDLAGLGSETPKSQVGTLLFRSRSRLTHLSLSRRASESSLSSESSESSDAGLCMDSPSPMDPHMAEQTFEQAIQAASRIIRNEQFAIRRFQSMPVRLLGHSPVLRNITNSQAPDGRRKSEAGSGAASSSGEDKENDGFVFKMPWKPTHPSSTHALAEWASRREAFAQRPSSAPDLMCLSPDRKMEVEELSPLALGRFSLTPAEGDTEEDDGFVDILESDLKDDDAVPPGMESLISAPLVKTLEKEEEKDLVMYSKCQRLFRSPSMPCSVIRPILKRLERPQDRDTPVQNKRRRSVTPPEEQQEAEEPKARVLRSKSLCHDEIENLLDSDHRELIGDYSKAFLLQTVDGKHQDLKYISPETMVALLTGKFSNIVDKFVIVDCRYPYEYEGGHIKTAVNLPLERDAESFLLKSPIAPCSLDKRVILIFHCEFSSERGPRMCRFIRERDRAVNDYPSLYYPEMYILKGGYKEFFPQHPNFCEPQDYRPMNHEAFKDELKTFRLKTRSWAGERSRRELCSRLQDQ
Assay: Inhibition of human recombinant GST-tagged CDC25B assessed as reduction in dephosphorylation of florigenic phosphatase substrate preincubated for 1 hr followed by substrate addition measured after 1 hr by fluorescence assay
pIC50: −log10 of the molar value.
property: pIC50

smilesData	result
CCOC(=O)c1c(C)[nH]c(/C=C2\S/C(=N/O)N(C(C)C)C2=O)c1C	5.23
CC(C)N1C(=O)/C(=C/c2ccc(OCCN(C)c3ccccn3)cc2)S/C1=N\O	5.61
CCOC(=O)c1c(C)[nH]c(/C=C2\S/C(=N\c3ccccc3F)N(c3ccccc3F)C2=O)c1C	5.44
[O]=[V]([OH])([OH])[OH]	6.04
CCOC(=O)c1c(C)[nH]c(/C=C2\S/C(=N\c3ccc(F)cc3)N(c3ccc(F)cc3)C2=O)c1C	5.54
CCOC(=O)c1c(C)[nH]c(/C=C2\S/C(=N\c3ccc(OC)cc3)N(c3ccc(OC)cc3)C2=O)c1C	5.56
CCOC(=O)c1c(C)[nH]c(/C=C2\S/C(=N\c3cccc(F)c3)N(c3cccc(F)c3)C2=O)c1C	5.47
